The measured values listed here are drawn from patent US9493451B2.

Target: Kv1.3 (Homo sapiens, UniProt P22001)
Sequence (P22001 whole entry): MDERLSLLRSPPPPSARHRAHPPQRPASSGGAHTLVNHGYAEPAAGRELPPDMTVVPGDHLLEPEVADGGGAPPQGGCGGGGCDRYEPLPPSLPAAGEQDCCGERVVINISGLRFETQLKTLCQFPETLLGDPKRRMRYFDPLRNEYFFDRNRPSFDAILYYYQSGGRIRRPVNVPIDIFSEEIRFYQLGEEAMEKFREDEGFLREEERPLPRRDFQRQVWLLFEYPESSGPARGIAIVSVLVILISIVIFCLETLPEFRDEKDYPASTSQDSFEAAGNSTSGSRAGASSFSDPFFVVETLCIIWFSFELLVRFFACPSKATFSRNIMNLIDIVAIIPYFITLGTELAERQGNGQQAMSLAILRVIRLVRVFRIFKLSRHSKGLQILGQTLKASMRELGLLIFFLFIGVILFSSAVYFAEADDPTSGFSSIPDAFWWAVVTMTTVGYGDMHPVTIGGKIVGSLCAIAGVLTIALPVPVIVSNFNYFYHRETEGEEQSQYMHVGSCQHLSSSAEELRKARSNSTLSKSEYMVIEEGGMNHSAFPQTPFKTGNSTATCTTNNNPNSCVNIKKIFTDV
Test: Electrophysiology: planar patch-clamp of Kv1.3 currents, IC50 from steady state current amplitude
Details: Kv1.3 electrophysiology, results according to Method D1, read-out: IC50 (Kv1.3 ephys steady state)
Description: The inhibition data shown for the compounds of the list below was calculated using the steady state current amplitude at the end of the depolarising pulse in patch clamp evaluations (as described in the Biology Protocols: 1. Electrophysiology). Kv1.x currents were measured in Kv1.3/CHO or Kv1.5/CHO cells using a planar electrode version (Nanion Technologies GMBH) of the patch-clamp technique. […]
pIC50: −log10 of the molar value.
Test Readout: pIC50

Look at this compound and give its reported pIC50. CCS(=O)(=O)c1cccc(C(C2CC2)N(Cc2ncccc2F)C(=O)CS(=O)(=O)c2ccccc2)c1 (stereo not shown) 5.70 to 6.00

Look at this compound and give its reported pIC50. CN1CC(C(c2ccc(OC(F)F)cc2)N(Cc2ccc(C(F)(F)F)cn2)C(=O)C2CC2c2ccc(F)cc2)C1 (stereo not shown) [Example 161] 6.00 to 6.70

Look at this compound and give its reported pIC50. CC(C)C(c1ccc(F)cc1)N(CCC1CCNCC1)C(=O)CS(=O)(=O)c1ccc(F)cc1 (stereo not shown) 6.00 to 6.70

Look at this compound and give its reported pIC50. CN1CC(C(c2ccc(F)cc2)N(Cc2ncccc2F)C(=O)C2CC2c2ccc(F)cc2)C1 (stereo not shown) [Example 155] 6.00 to 6.70

====

Target: UniProtKB P22001
Assay: Electrophysiology: planar patch-clamp of Kv1.3 currents, IC50 from steady state current amplitude
Conditions: Kv1.3 electrophysiology, results according to Method D1, read-out: IC50 (Kv1.3 ephys steady state)
pIC50: −log10 of the molar value.
Provide the reported pIC50 of each item.

Look at this compound and give its reported pIC50. O=C(C1CC1c1ccc(F)cc1)N(Cc1ccc(F)cn1)C(c1ccc(OC(F)F)cc1)C1CNC1 (stereo not shown) [Example 153] 5.70 to 6.00

Look at this compound and give its reported pIC50. Cc1ccc(CN(C(=O)CS(=O)(=O)c2ccccc2)C(c2ccc(OC(F)F)cc2)C2CC2)cn1 (stereo not shown) [Example 323] 6.00 to 6.70

Look at this compound and give its reported pIC50. CC(CC(=O)N(Cc1ccc(C(F)(F)F)nc1)C(c1ccc(OC(F)F)cc1)C1CC1)c1ccccc1S(C)(=O)=O (stereo not shown) 6.70 to 7.30

Look at this compound and give its reported pIC50. CC(C)(C(=O)N(Cc1ccc(C(F)(F)F)nc1)C(c1ccc(OC(F)F)cc1)C1CC1)S(=O)(=O)c1ccccc1 (stereo not shown) 6.70 to 7.30

====

Biological target: Kv1.3 (Homo sapiens)
Experiment: Electrophysiology: planar patch-clamp of Kv1.3 currents, IC50 from steady state current amplitude
Conditions: Kv1.3 electrophysiology, results according to Method D1, read-out: IC50 (Kv1.3 ephys steady state)
pIC50: −log10 of the molar value.
Test Readout: pIC50

Look at this compound and give its reported pIC50. CCS(=O)(=O)c1cccc(C(C2CC2)N(Cc2ccc(F)cn2)C(=O)C2CC2c2cccc(C(F)(F)F)c2)c1 (stereo not drawn) [Example 212] 6.70 to 7.30

Look at this compound and give its reported pIC50. COc1ccc(CN(C(=O)CC(C)S(=O)(=O)c2ccc(F)cc2)C(c2ccc(OC(F)F)cc2)C2CC2)cn1 (stereo not drawn) [Example 88] 6.70 to 7.30

Look at this compound and give its reported pIC50. CCS(=O)(=O)c1cccc(C(C2CC2)N(Cc2ccc(F)cn2)C(=O)C2CC2c2ccc(F)cc2F)c1 (stereo not drawn) [Example 196] 6.70 to 7.30

Look at this compound and give its reported pIC50. CCC(c1ccc(S(=O)(=O)CC)cc1)N(Cc1ccc(F)cn1)C(=O)C1CC1c1ccc(F)cc1 (stereo not drawn) [Example 116] 6.00 to 6.70

Look at this compound and give its reported pIC50. CC(CC(=O)N(Cc1cccnn1)C(c1ccc(OC(F)F)cc1)C1CC1)c1ccccc1C(F)(F)F (stereo not drawn) [Example 260] 6.70 to 7.30

Look at this compound and give its reported pIC50. CN1CC(C(c2ccc(OC(F)F)cc2)N(Cc2ccc(F)cn2)C(=O)C2CC2c2ccc(F)cc2)C1 (stereo not drawn) [Example 154] 6.00 to 6.70

Look at this compound and give its reported pIC50. CC(C)C(c1ccc(OC(F)F)cc1)N(Cc1cccnn1)C(=O)C1CC1c1ccc(F)cc1 (stereo not drawn) [Example 114] 6.70 to 7.30

Look at this compound and give its reported pIC50. CC(C)(C(=O)N(Cc1cccnn1)C(c1ccc(OC(F)F)cc1)C1CC1)S(=O)(=O)c1ccc(F)cc1 (stereo not drawn) [Example 308] 6.70 to 7.30

Look at this compound and give its reported pIC50. CCS(=O)(=O)c1cccc(C(C2CC2)N(C(=O)C2CC2c2ccccc2OC(F)(F)F)C2CCOCC2)c1 (stereo not drawn) [Example 221] 6.00 to 6.70

Look at this compound and give its reported pIC50. CC(C)C(c1ccc(OC(F)F)cc1)N(Cc1ccc(F)cn1)C(=O)C1CC1c1ccc(F)cc1 (stereo not drawn) [Example 110] > 7.30

Look at this compound and give its reported pIC50. Cc1ccc(CN(C(=O)CS(=O)(=O)c2ccccc2)C(c2ccc(OC(F)F)cc2)C2CC2)cn1 (stereo not drawn) [Example 322] 6.70 to 7.30

Look at this compound and give its reported pIC50. CN1CCC(C(c2cccc(C(F)(F)F)c2)N(Cc2ccc(F)cn2)C(=O)C2CC2c2ccc(F)cc2)CC1 (stereo not drawn) [Example 146] 6.00 to 6.70

Look at this compound and give its reported pIC50. O=C(CS(=O)(=O)c1ccccc1)N(Cc1ncccc1F)C(c1ccc(OC(F)F)cc1)C1CC1 (stereo not drawn) [Example 304] 6.70 to 7.30

Look at this compound and give its reported pIC50. O=C(CS(=O)(=O)c1ccccc1)N(Cc1ccc(C(F)(F)F)nc1)C(c1ccc(OC(F)F)cc1)C1CC1 (stereo not drawn) [Example 302] 6.70 to 7.30

Look at this compound and give its reported pIC50. CCS(=O)(=O)c1cccc([C@@H](C2CC2)N(Cc2ccc(C(F)(F)F)nc2)C(=O)[C@@H]2C[C@H]2c2ccc(F)cc2)c1 (single isomer, unassigned) [Example 99] > 7.30

====

Molecular target: Kv1.3 (Homo sapiens, UniProt P22001)
Experiment: Electrophysiology: planar patch-clamp of Kv1.3 currents, IC50 from steady state current amplitude
Settings: Kv1.3 electrophysiology, results according to Method D1, read-out: IC50 (Kv1.3 ephys steady state)
Description: The inhibition data shown for the compounds of the list below was calculated using the steady state current amplitude at the end of the depolarising pulse in patch clamp evaluations (as described in the Biology Protocols: 1. Electrophysiology). Kv1.x currents were measured in Kv1.3/CHO or Kv1.5/CHO cells using a planar electrode version (Nanion Technologies GMBH) of the patch-clamp technique. […]
Provide the reported IC50 of each item.

Look at this molecule and give its reported IC50. CC(CC(=O)N(Cc1ccc(C(F)(F)F)nc1)C(C)c1ccc2c(c1)CCC2)c1ccc(F)cc1 (single isomer, unassigned) [Compound 39] 50 to 200 nM

Look at this molecule and give its reported IC50. CC(CC(=O)N(Cc1cccc[n+]1[O-])C(c1ccc(Cl)cc1)C1CC1)c1ccc(F)cc1 (centres unmarked) 50 to 200 nM

Look at this molecule and give its reported IC50. O=C(CS(=O)(=O)c1cccc(C(F)(F)F)c1)N(Cc1cccnn1)C(c1ccc(OC(F)F)cc1)C1CC1 (centres unmarked) [Example 307] 50 to 200 nM

Look at this molecule and give its reported IC50. O=C(C1CC1c1ccc(F)cc1)N(Cc1ccc(F)cn1)C(c1ccc(F)cc1)C1CNC1 (centres unmarked) 200 to 1000 nM

Look at this molecule and give its reported IC50. CN1C2CCC1CC(N(C(=O)CS(=O)(=O)c1ccccc1)C(c1ccc(Cl)cc1)C1CC1)C2 (racemic) 50 to 200 nM

Look at this molecule and give its reported IC50. O=C(C1CC1c1ccc(F)cc1)N(Cc1ccc(F)cn1)C(c1ccc(S(=O)(=O)C2CC2)cc1)C1CC1 (centres unmarked) 200 to 1000 nM

Look at this molecule and give its reported IC50. O=C(CS(=O)(=O)c1ccc(F)cc1)N(C1CCOCC1)C(c1ccc(OC(F)F)cc1)C1CC1 (centres unmarked) 200 to 1000 nM

Look at this molecule and give its reported IC50. CN1CCC(C(c2ccc(F)cc2F)N(Cc2ncccc2F)C(=O)C2CC2c2ccc(F)cc2)CC1 (centres unmarked) 200 to 1000 nM

Look at this molecule and give its reported IC50. O=C(C1CC1c1ccc(F)cc1)N(Cc1cccnn1)C(c1ccc(F)cc1)C1CCOC1 (centres unmarked) [Example 174] 50 to 200 nM

Look at this molecule and give its reported IC50. CN1CC(C(c2ccc(OC(F)F)cc2)N(Cc2ccc(C(F)(F)F)cn2)C(=O)C2CC2c2ccc(F)cc2)C1 (centres unmarked) [Example 160] 200 to 1000 nM

Look at this molecule and give its reported IC50. N#Cc1cccc(C(C2CC2)N(Cc2ncccc2F)C(=O)C2CC2c2ccc(F)cc2)c1 (centres unmarked) [Example 252] 50 to 200 nM

Look at this molecule and give its reported IC50. O=C(CS(=O)(=O)c1ccc(F)cc1)N(Cc1ccc(C(F)(F)F)nc1)C(c1ccc(OC(F)F)cc1)C1CC1 (centres unmarked) [Example 312] 50 to 200 nM

Look at this molecule and give its reported IC50. O=C(CS(=O)(=O)c1ccc(F)cc1)N(Cc1ccc(C(F)(F)F)nc1)C(c1ccc(OC(F)F)cc1)C1CC1 (centres unmarked) [Example 313] 50 to 200 nM

Look at this molecule and give its reported IC50. CCS(=O)(=O)c1ccc(C(C2CC2)N(Cc2cccnn2)C(=O)C2CC2c2ccc(F)cc2)cc1 (centres unmarked) 50 to 200 nM

Look at this molecule and give its reported IC50. CCS(=O)(=O)c1cccc(C(C2CCN(C)CC2)N(Cc2ccc(F)cn2)C(=O)C2CC2c2ccc(F)cc2)c1 (centres unmarked) 200 to 1000 nM

Look at this molecule and give its reported IC50. CN1CC(C(c2ccc(OC(F)(F)F)cc2)N(Cc2cncc(F)c2)C(=O)C2CC2c2ccc(F)cc2)C1 (centres unmarked) [Example 162] 200 to 1000 nM

Look at this molecule and give its reported IC50. CC(C)[C@@H](c1ccc(F)cc1)N(CCN1CCC(F)CC1)C(=O)C1(S(=O)(=O)c2ccc(F)cc2)CC1 (single isomer, unassigned) 50 to 200 nM

Look at this molecule and give its reported IC50. O=C(CS(=O)(=O)c1ccc(F)cc1)N(Cc1ccc(F)cn1)C(c1ccc(Cl)cc1)C1CC1 (centres unmarked) 50 to 200 nM

Look at this molecule and give its reported IC50. CCS(=O)(=O)c1ccc(C(C2CC2)N(Cc2ccc(F)cn2)C(=O)C2CC2c2cccc(C(F)(F)F)c2)cc1 (centres unmarked) [Example 228] 50 to 200 nM

Look at this molecule and give its reported IC50. O=C(CS(=O)(=O)c1ccc(F)cc1)N(C1CCNCC1)C(c1ccc(OC(F)F)cc1)C1CC1 (centres unmarked) 200 to 1000 nM

Look at this molecule and give its reported IC50. CN1C2CCC1CC(N(C(=O)CS(=O)(=O)c1ccc(F)cc1)C(c1ccc(Cl)cc1)C1CC1)C2 (centres unmarked) 200 to 1000 nM

Look at this molecule and give its reported IC50. O=C(C1CC1c1ccc(F)cc1)N(Cc1cccnn1)C(c1ccc(S(=O)(=O)C2CC2)cc1)C1CC1 (centres unmarked) [Example 248] 200 to 1000 nM

Look at this molecule and give its reported IC50. CCS(=O)(=O)c1ccc(C(C2CC2)N(Cc2ccc(F)cn2)C(=O)C2CC2c2cccc(C(F)(F)F)c2)cc1 (centres unmarked) [Example 227] 50 to 200 nM

Look at this molecule and give its reported IC50. O=C(C1CC1c1ccc(F)cc1)N(Cc1ncccc1F)C(c1ccc(F)cc1)C1CCOC1 (centres unmarked) [Example 172] 50 to 200 nM

Look at this molecule and give its reported IC50. O=C(C1CC1c1ccc(F)cc1)N(Cc1cccnn1)C(c1ccc(S(=O)(=O)C2CC2)cc1)C1CC1 (centres unmarked) [Example 249] 50 to 200 nM

Look at this molecule and give its reported IC50. CCS(=O)(=O)c1cccc(C(C2CC2)N(C(=O)C2CC2c2ccccc2OC(F)(F)F)C2CCOCC2)c1 (centres unmarked) [Example 220] 50 to 200 nM

Look at this molecule and give its reported IC50. CC(C)C(c1ccc(OC(F)F)cc1)N(Cc1ccc(F)cn1)C(=O)C1CC1c1ccc(F)cc1 (centres unmarked) [Example 111] 50 to 200 nM

Look at this molecule and give its reported IC50. CN1CC(C(c2ccc(OC(F)F)cc2)N(Cc2ncccc2F)C(=O)C2CC2c2ccc(F)cc2)C1 (centres unmarked) [Example 151] 200 to 1000 nM

Look at this molecule and give its reported IC50. O=C(CS(=O)(=O)c1ccccc1)N(Cc1cccnn1)C(c1ccc(OC(F)F)cc1)C1CC1 (centres unmarked) [Example 305] 50 to 200 nM
